The measured values listed here are drawn from the antibiotic and cytotoxicity screens of Wong et al. (2023).

# System: HepG2
# test.name: cytotoxicity call (relative viability < 0.9)
# test.settings: 10 µM
Hit rate of the full screen: of about 39,000 compounds, about 3,300 (8.5%) were called active. Many of the other results were omitted from the sample, so actives are more common in it than they were.
Write down the outcome that applies. Available outcomes: class 1 for active, class 0 for inactive

Here's what some known entries look like.
| compound | discrete.label |
| --- | --- |
| Cc1ccc(Cc2nc(-c3ccc(Cl)cc3)cs2)cc1 | class 1 |
| Cl.N=C(NN=Cc1ccc(Cl)cc1)NN=Cc1ccc(Cl)cc1 | class 0 |
| COc1ccc(NC(=O)N(C)C[C@H]2Oc3c(NC(=O)C4CCOCC4)cccc3C(=O)N([C@@H](C)CO)C[C@@H]2C)cc1 | class 0 |

How did this test come out for C=CC[C@@H](CC(=O)N(CCO)Cc1ccccc1)C(=O)N[C@H](COC(=O)[C@@H](CC=C)Cc1ccc(F)cc1)Cc1c[nH]c2ccccc12 ?
class 1

Thanks! And C[C@@H]1CN([C@@H](C)CO)C(=O)Cc2cc(NC(=O)CCCN(C)C)ccc2O[C@H]1CN(C)Cc1ccc(Oc2ccccc2)cc1 ?
class 0

Follow-up entry: C[C@H](CO)N1C[C@H](C)[C@@H](CN(C)Cc2ccc(Oc3ccccc3)cc2)Oc2ccc(NC(=O)CCCN(C)C)cc2CC1=O
class 0

Can you handle CC(C)(C)c1csc(-c2ccc(-c3cccs3)s2)n1 next?
class 0

Now this one: COC1CC(OC2C(C)OC(OC3C(C)=CCC4CC(CC5(C=CC(C)C(C6CCCCC6)O5)O4)OC(=O)C4C=C(C)C(O)C5OCC(=CC=CC3C)C45O)CC2OC)OC(C)C1O (centres undefined)
class 0

Same read-out for COc1ccc([Si](C)(C)[C@H]2[C@H](CCn3cc([C@H](O)c4ccccc4)nn3)O[C@@]3(C(=O)N(Cc4cccc(N5CCC5=O)c4)c4ccccc43)[C@@H]2C)cc1 ?
class 0

Queued: Cc1ccc(-c2nc(-c3ccc(Cl)cc3)cs2)cc1F
class 0

Consider next the compound C[C@@H]1CN([C@H](C)CO)C(=O)Cc2cc(NC(=O)CCCN(C)C)ccc2O[C@@H]1CN(C)Cc1ccc(Oc2ccccc2)cc1 in the same way.
class 1

Would you mind doing Cc1cnc(Nc2ccc(F)cc2Cl)nc1-c1c[nH]c(C(=O)N[C@H](CO)c2cccc(Cl)c2)c1 as well?
class 1

Also need C[C@H]1CN([C@@H](C)CO)C(=O)Cc2cc(NC(=O)CCCN(C)C)ccc2O[C@H]1CN(C)Cc1ccc(Oc2ccccc2)cc1 , thanks.
class 0

Next: C=CC[C@H](CC(=O)N(CCO)Cc1ccccc1)C(=O)N[C@H](COC(=O)[C@H](CC=C)CC(=O)OC(C)(C)C)Cc1c[nH]c2ccccc12
class 0

C[C@@H]1CN([C@@H](C)CO)S(=O)(=O)c2ccc(C#CC(C)(C)O)cc2O[C@H]1CN(C)Cc1ccncc1 , same question.
class 0

C[C@@H]1CN([C@H](C)CO)C(=O)Cc2cc(NC(=O)c3ccncc3)ccc2O[C@@H]1CN(C)S(=O)(=O)c1ccc(Cl)cc1 , same question.
class 0

Try the compound C=CC[C@@H](CC(=O)N(CCO)Cc1ccccc1)C(=O)N[C@@H](COC(=O)[C@H](CC=C)CC(=O)OC(C)(C)C)Cc1c[nH]c2ccccc12
class 0

Input C[C@H](CO)N1C[C@H](C)[C@H](CN(C)C(=O)CN(C)C)Oc2cc(C#CCN(C)C)ccc2S1(=O)=O
class 0

Try C=CC[C@H](CC(=O)N(CCO)Cc1ccccc1)C(=O)N[C@@H](COC(=O)[C@H](CC=C)CC(=O)OC(C)(C)C)Cc1c[nH]c2ccccc12 next.
class 0

And then C[C@@H]1CN([C@H](C)CO)C(=O)c2cc(NC(=O)Nc3ccc(F)cc3)ccc2O[C@@H]1CN(C)S(C)(=O)=O , what is it?
class 0

Request: COC[C@H]1CCCNC1
class 0

Could you do the same for C[C@H](CO)N1C[C@H](C)[C@H](CN(C)Cc2ccc(Oc3ccccc3)cc2)Oc2ccc(NC(=O)CCCN(C)C)cc2CC1=O , please?
class 0
